Ref: patent US6759409B2

# target.under.test: HPV-11 E1-E2-DNA origin of replication complex (Human papillomavirus 11)
# Construct: approximately 100-200 ng of purified E1
# Sequence (P04015 whole entry, one chain of several): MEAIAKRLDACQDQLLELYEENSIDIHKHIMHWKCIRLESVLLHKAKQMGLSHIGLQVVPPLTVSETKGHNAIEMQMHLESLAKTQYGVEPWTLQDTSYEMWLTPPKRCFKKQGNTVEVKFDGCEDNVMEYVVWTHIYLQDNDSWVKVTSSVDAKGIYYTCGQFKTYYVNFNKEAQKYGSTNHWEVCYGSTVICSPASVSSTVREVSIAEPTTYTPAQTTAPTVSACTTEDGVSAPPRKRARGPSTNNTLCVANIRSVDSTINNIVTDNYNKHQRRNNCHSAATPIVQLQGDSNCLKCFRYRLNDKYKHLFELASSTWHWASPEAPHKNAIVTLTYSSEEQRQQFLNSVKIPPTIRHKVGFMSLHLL
# experimental.protocol: E2-dependent E1 DNA binding assay (E1-E2 DNA assay)
# settings: Table 1A, enantiomerically pure cis/cis isomer (form 1)
pIC50: −log10 of the molar value.

{"compound": "Cc1ccc2c(c1)C(=O)C1(OC(c3ccc(Cl)c(Cl)c3)C(C(=O)Nc3ccc(-c4csnn4)cc3)C1C(=O)O)C2=O (single isomer, unassigned) [A1008]", "pIC50": "> 6.30"}
{"compound": "Cc1ccc2c(c1)C(=O)C1(OC(c3ccc(Cl)c(Cl)c3)C(C(=O)Nc3ccc(-c4csnn4)cc3)C1C(=O)O)C2=O (single isomer, unassigned) [A1007]", "pIC50": "5.30 to 6.30"}
